All values here come from ChEMBL document CHEMBL1201862.

- ASSAY COMMENT: microbe, parasite or virus in culture
- Type: functional
- TEST CONTEXT: Mycobacterium tuberculosis
Active and inactive are the calls of the source.

{"COMPOUND": "CC(C)c1nnc(NC(=O)CCC(=O)N2CCN(c3ccc(Cl)cc3)CC2)s1", "CC50": "> 40 µM (active)"}
{"COMPOUND": "COc1ccc(C2=NN(C(=O)COC(=O)c3ccc(S(C)(=O)=O)c([N+](=O)[O-])c3)C(c3ccco3)C2)cc1 (centres undefined)", "CC50": "9.73 µM (active)"}
{"COMPOUND": "COc1ccc(-c2oc(NC(=O)CCl)c(C#N)c2-c2ccc(OC)cc2)cc1", "CC50": "10.1 µM (active)"}
{"COMPOUND": "CC(C)c1ccc2nc(N)sc2c1", "CC50": "> 40 µM (active)"}

* * *

- STUDY SYSTEM: Alkaline phosphatase, tissue-nonspecific isozyme (Homo sapiens)
- ASSAY COMMENT: human TNAP enzyme inhibitors, SAR follow-up, biochemical, luminescent, dose response (AID 1056)
Active and inactive are the calls of the source.
Outcomes: 1 = active, 0 = inactive

{"SMILES STRUCTURE": "Cc1cc2ncn(CC(=O)c3ccc(O)c(O)c3)c2cc1C", "LABEL": 0}
{"SMILES STRUCTURE": "Cc1c(CCO)c(O)oc2nnc(-c3ccccc3)c1-2", "LABEL": 0}
{"SMILES STRUCTURE": "O=C1c2ccccc2C(=O)N1c1nc(-c2cccnc2)n[nH]1", "LABEL": 0}
{"SMILES STRUCTURE": "NNC(=O)c1cc(-c2ccc(Cl)c(Cl)c2Cl)n[nH]1", "LABEL": 1}
{"SMILES STRUCTURE": "CC1(C)CC(=O)c2c(n[nH]c2-c2cccs2)C1", "LABEL": 1}

* * *

- STUDY SYSTEM: Large T antigen (Simian virus 40);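 further: Confirmatory-stage PubChem screen for compounds that inhibit SV40 T antigen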
- Assay type: functional, Betapolyomavirus macacae
The source made the active and inactive calls.
Reported values of IC50 for individual entries

{"MOLECULE": "Cc1ccc2cc3c(N)[nH]nc3nc2c1", "IC50": "13.1 µM (active)"}
{"MOLECULE": "C/C(=N/NS(=O)(=O)c1cccc([N+](=O)[O-])c1)c1c[nH]c2ccccc12", "IC50": "17 µM (active)"}
{"MOLECULE": "Cc1cc(C(=O)c2cccs2)c(N)s1", "IC50": "51.8 µM (active)"}
{"MOLECULE": "NS(=O)(=O)c1ccc(-c2ccc(C=C3C(=O)NC(=S)NC3=O)o2)cc1", "IC50": "10.5 µM (active)"}
{"MOLECULE": "CCC(C)N(C(=O)COC(=O)/C=C/c1ccc(O)c(OC)c1)C1CCS(=O)(=O)C1 (centres undefined)", "IC50": "11.4 µM (active)"}
{"MOLECULE": "Nc1ccc(-c2nc3cc(N)ccc3n2CCO)cc1", "IC50": "41.7 µM (active)"}
{"MOLECULE": "Cc1nnc(Nc2ccc(O)cc2)nc1O", "IC50": "33 µM (active)"}
{"MOLECULE": "CCOC(=O)C1=C(O)/C(=C/c2cccc(OC)c2O)N=C1C", "IC50": "16.4 µM (active)"}
{"MOLECULE": "CC(/C=N/n1c(S)nnc1-c1ccncc1)=C\\c1ccco1", "IC50": "45 µM (active)"}

* * *

Reported values of IC50 for individual entries
- STUDY SYSTEM: Leucine aminopeptidase (Plasmodium falciparum 3D7)
- ASSAY COMMENT: P. falciparum M17LAP inhibitors, primary screen, biochemical, fluorogenic H-Leu-NHMec substrate, 1536-well (AID 1619)
- Format: functional
Activity calls are given as the source filed them.
EXPERIMENTAL READOUT: IC50

{"SMILES STRUCTURE": "O=C(Nc1nnc(SCC(=O)N2CCCCC2)s1)c1cccs1", "RESULT": "30.4 µM (active)"}
{"SMILES STRUCTURE": "COC(=O)c1ccc(C)c(NC(=O)CN2C(=O)c3ccccc3S2(=O)=O)c1", "RESULT": "10 µM (active)"}
{"SMILES STRUCTURE": "O=C(COc1ccc2ccccc2c1)Nc1cccc(C(=O)Nc2ccccc2C(=O)O)c1", "RESULT": "8.71 µM (active)"}
{"SMILES STRUCTURE": "O=C(O)c1cccc(C(=O)Cc2ccccc2)c1", "RESULT": "17.5 µM (active)"}
{"SMILES STRUCTURE": "O=C(CN1C(=O)c2ccccc2S1(=O)=O)NCCSCc1ccco1", "RESULT": "16.2 µM (active)"}

* * *

- ASSAY COMMENT: HEp-2 cell cytotoxicity, dose response, cytotoxicity control for RSV inhibitor project, HTS (AID 2410)
- Format: functional
- TEST CONTEXT: human respiratory syncytial virus
Calls of active or inactive are those of the source.
EXPERIMENTAL READOUT: CC50

{"SMILES STRUCTURE": "CC1(C)COC(/C=C/c2cccc([N+](=O)[O-])c2)=N1", "RESULT": "9.78 µM (active)"}
{"SMILES STRUCTURE": "N#C/C(=C\\c1cccc(NC(=O)c2ccccc2Cl)c1)C(=O)NCCc1ccccc1", "RESULT": "15.6 µM (active)"}
{"SMILES STRUCTURE": "O=C(Nc1ccncc1)Nc1cccc(C(F)(F)F)c1", "RESULT": "> 50 µM (active)"}

* * *

- STUDY SYSTEM: Mannose-6-phosphate isomerase (Homo sapiens, UniProt P34949)
- ASSAY COMMENT: PMI enzyme inhibitors, confirmation, biochemical, fluorescence intensity (AID 1535)
Active and inactive are the calls of the source.
Outcomes: t for active, f for inactive

{"SMILES STRUCTURE": "Clc1nss/c1=N\\c1cnc2ccccc2c1", "LABEL": "t"}
{"SMILES STRUCTURE": "Cc1c(Cl)cccc1/N=c1\\ssnc1Cl", "LABEL": "f"}
{"SMILES STRUCTURE": "O=c1c2c([N+](=O)[O-])cc([N+](=O)[O-])cc2sn1-c1ccc(OC(F)(F)Cl)cc1", "LABEL": "t"}
{"SMILES STRUCTURE": "O=[N+]([O-])c1c(Br)cccc1/N=c1\\ssnc1Cl", "LABEL": "t"}
{"SMILES STRUCTURE": "COc1ccc(-c2n[nH]c(=S)[nH]2)cc1OC", "LABEL": "t"}

* * *

- STUDY SYSTEM: Cytochrome P450 2C19 (Homo sapiens, UniProt P33261)
- ASSAY COMMENT: Cytochrome panel assay with activity outcomes. Panel member name: p450-cyp2c19 Compounds with AC50 equal or less than 10 uM are considered active
- Format: functional
- TEST CONTEXT: read-out: AC50

{"MOLECULE": "O=C(/C(=C/c1ccc(Cl)cc1)c1nc2ccccc2[nH]1)c1ccccc1", "AC50": "1.58 µM (inconclusive)"}
{"MOLECULE": "COc1cccc(C2=NOC(C(=O)Nc3ccc(OC)c(OC)c3)C2)c1 (configuration not stated)", "AC50": "25.1 µM (inconclusive)"}
{"MOLECULE": "Cn1c(=O)c2cc(S(=O)(=O)NCCC(=O)N3CC=C(c4ccccc4)CC3)ccc2n(C)c1=O", "AC50": "25.1 µM (inconclusive)"}
{"MOLECULE": "Cc1ccc(SCN2CCCCC2)cc1.O=C(Cl)c1ccc([N+](=O)[O-])cc1", "AC50": "2.51 µM (inconclusive)"}
{"MOLECULE": "CCOc1ccc(CC(=O)C2C(=O)CCCC2=O)cc1OCC", "AC50": "39.8 µM (inconclusive)"}
{"MOLECULE": "CCOc1ccc(-c2c(=O)n(OCc3ccccn3)c3ccccc3[n+]2[O-])cc1", "AC50": "15.8 µM (inconclusive)"}
{"MOLECULE": "COc1ccc(/C(O)=C(\\C#N)c2nc3ccccc3n2C)cc1OC", "AC50": "39.8 µM (inconclusive)"}
{"MOLECULE": "CCCCC#Cc1nc(N)c2ncn([C@@H]3O[C@@H](C(=O)NCC)[C@H](O)[C@@H]3O)c2n1", "AC50": "39.8 µM (inconclusive)"}
{"MOLECULE": "CC(=O)O[C@H]1CC[C@@]2(C)C(=CC[C@@H]3[C@H]2CC[C@]2(C)C(=O)CC[C@H]32)C1", "AC50": "5.01 µM (inconclusive)"}
{"MOLECULE": "Clc1ccccc1OCCCCN1CCCC1", "AC50": "28.2 µM (inconclusive)"}
{"MOLECULE": "CCOc1cc(CNCCc2ccc(S(N)(=O)=O)cc2)ccc1OCc1ccc(Cl)cc1", "AC50": "17.8 µM (inconclusive)"}
{"MOLECULE": "CC(C)OC(=O)/C(=C\\c1ccc2c(c1)c1ccccc1n2C)NC(=O)c1ccccc1", "AC50": "2.51 µM (inconclusive)"}
